Tgt: PmSiaT (Proteus mirabilis, UniProt B4EZY7)
Construct: made in house
Sequence (B4EZY7 whole entry): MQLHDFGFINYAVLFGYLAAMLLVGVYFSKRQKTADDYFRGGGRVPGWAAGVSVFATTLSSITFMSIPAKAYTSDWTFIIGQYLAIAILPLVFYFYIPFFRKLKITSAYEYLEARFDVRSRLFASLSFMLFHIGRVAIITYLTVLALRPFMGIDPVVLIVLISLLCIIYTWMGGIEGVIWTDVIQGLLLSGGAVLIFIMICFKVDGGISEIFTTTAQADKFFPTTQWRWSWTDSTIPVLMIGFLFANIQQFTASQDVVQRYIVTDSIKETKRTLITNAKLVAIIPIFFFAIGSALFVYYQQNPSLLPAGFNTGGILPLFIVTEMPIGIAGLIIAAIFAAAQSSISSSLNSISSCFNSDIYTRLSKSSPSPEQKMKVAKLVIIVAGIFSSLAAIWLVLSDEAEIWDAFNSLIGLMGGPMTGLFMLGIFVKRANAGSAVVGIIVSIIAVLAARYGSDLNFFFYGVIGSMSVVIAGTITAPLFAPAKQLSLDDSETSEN
Experimental protocol: nanoDSF thermal shift assay, PmSiaT
Assay type: binding
Cond: PmSiaT, three experiments, 1.25 mM
Measurement kind: Tm average overall (°C)
Numbers only; they are read as °C.

Some compounds with known Tm average overall results, for comparison:
[[record]]
compound = "O=C(Cc1ccccc1)NC1C(O)CC(O)(C(=O)O)OC1C(O)C(O)CO (centres unmarked)"
tgt = "PmSiaT (Proteus mirabilis, UniProt B4EZY7)"
unit = "°C"
readout_value = 45.8

[[record]]
compound = "CC(=O)NC1C(O)CC(O)(C(=O)O)OC1C(O)C(C)O (centres unmarked)"
tgt = "PmSiaT (Proteus mirabilis, UniProt B4EZY7)"
unit = "°C"
readout_value = 45.9

[[record]]
compound = "CCSCC(O)C(O)C1OC(O)(C(=O)O)CC(O)C1NC(C)=O (centres unmarked)"
tgt = "PmSiaT (Proteus mirabilis, UniProt B4EZY7)"
unit = "°C"
readout_value = 46.0

[[record]]
compound = "CC(=O)NC1C(OCc2ccccc2)CC(O)(C(=O)O)OC1C(O)C(O)CO (centres unmarked)"
tgt = "PmSiaT (Proteus mirabilis, UniProt B4EZY7)"
unit = "°C"
readout_value = 54.2


Attention now shifts to the item below.
Entry CC(=O)NC1C(OCc2cc(Br)cc(Br)c2)CC(O)(C(=O)O)OC1C(O)C(O)CO (centres unmarked) , tested on PmSiaT (Proteus mirabilis, UniProt B4EZY7), has a reported Tm average overall of 63.5

---

Tgt: PmSiaT (Proteus mirabilis)
Construct: made in house
Experimental protocol: nanoDSF thermal shift assay, PmSiaT
Format: binding
Cond: PmSiaT Tm, average of experiment 3
Values of Average 3 greater than or equal to 50 °C map to criterion met; values below map to criterion not met.

These solved cases illustrate the format of a correct answer.
[[record]]
compound = "CC(=O)NC1C(OCc2cc(F)cc(F)c2)CC(O)(C(=O)O)OC1C(O)C(O)CO (stereo not shown)"
assigned_category = "criterion met"

[[record]]
compound = "O=C(NC1C(O)CC(O)(C(=O)O)OC1C(O)C(O)CO)c1ccccc1 (stereo not shown)"
assigned_category = "criterion not met"

[[record]]
compound = "CC(C)C(=O)NC1C(O)CC(O)(C(=O)O)OC1C(O)C(O)CO (stereo not shown)"
assigned_category = "criterion not met"

[[record]]
compound = "CC(=O)N[C@H]1[C@H]([C@H](O)[C@H](O)CO)OC(C(=O)O)=C[C@@H]1O [Compound 9, reference compound]"
assigned_category = "criterion not met"

[[record]]
compound = "CC(=O)NC1C(O)CC(O)(C(=O)O)OC1C(O)C(O)CCl (stereo not shown)"
assigned_category = "criterion not met"


API: above_or_equal(metric=Average 3, cutoff=50 °C) for item CC(=O)NC1C(OCc2ccccc2)CC(O)(C(=O)O)OC1C(O)C(O)CO (stereo not shown) criterion met

Given the entry CC(C)(C)C(=O)NC1C(O)CC(O)(C(=O)O)OC1C(O)C(O)CO (stereo not shown) , answer whether its Average 3 meets or surpasses 50 °C. criterion not met

Given the entry CC(=O)NC1C(OCc2ccc(C#N)cc2)CC(O)(C(=O)O)OC1C(O)C(O)CO (stereo not shown) , answer whether its Average 3 meets or surpasses 50 °C. criterion met

// inclusive: Average 3 at least 50 °C? input: CC(=O)NC1C(O)CC(O)(C(=O)O)OC1C(O)C(O)CBr (stereo not shown) criterion not met

Kindly determine if Average 3 recorded for CC(=O)NC1C(O)CC(O)(C(=O)O)OC1C(O)C(O)CN=[N+]=[N-] (stereo not shown) is above or exactly 50 °C. criterion not met

---

Tgt: SaSiaT (Staphylococcus aureus, UniProt A0A0H2XJ46)
Sequence (A0A0H2XJ46 entry or part of it): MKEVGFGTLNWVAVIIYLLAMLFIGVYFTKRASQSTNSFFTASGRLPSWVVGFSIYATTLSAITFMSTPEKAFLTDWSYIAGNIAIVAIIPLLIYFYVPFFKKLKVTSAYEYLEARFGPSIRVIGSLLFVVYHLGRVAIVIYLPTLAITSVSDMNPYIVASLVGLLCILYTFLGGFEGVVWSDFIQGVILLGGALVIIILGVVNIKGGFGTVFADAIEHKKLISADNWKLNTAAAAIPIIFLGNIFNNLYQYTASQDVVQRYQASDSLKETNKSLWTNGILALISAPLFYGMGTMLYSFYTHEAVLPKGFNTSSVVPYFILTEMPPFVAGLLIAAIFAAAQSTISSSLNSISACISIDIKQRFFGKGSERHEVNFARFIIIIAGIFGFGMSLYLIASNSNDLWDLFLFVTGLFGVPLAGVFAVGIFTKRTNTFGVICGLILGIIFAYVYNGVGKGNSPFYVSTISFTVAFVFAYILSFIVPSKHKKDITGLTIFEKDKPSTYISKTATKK
Experimental protocol: nanoDSF thermal shift assay, SaSiaT
Assay type: binding
Cond: SaSiaT Tm, experiment 2, second capillary, 1.25 mM
Mark y only when Replicate 2 stays strictly below 50 °C. Values equal to the cut-off are n.

[[record]]
compound = "CC(=O)NC1C(O)CC(O)(C(=O)O)OC1C(O)C(O)CN=[N+]=[N-] (stereo not drawn) [Compound 8g]"
tgt = "SaSiaT (Staphylococcus aureus, UniProt A0A0H2XJ46)"
assigned_category = "y"

[[record]]
compound = "CC(=O)NC1C(OCc2ccccc2)CC(O)(C(=O)O)OC1C(O)C(O)CO (stereo not drawn) [Compound 3a]"
tgt = "SaSiaT (Staphylococcus aureus, UniProt A0A0H2XJ46)"
assigned_category = "n"

[[record]]
compound = "CC(=O)NC1C(OCc2ccc(Br)cc2)CC(O)(C(=O)O)OC1C(O)C(O)CO (stereo not drawn) [Compound 3c]"
tgt = "SaSiaT (Staphylococcus aureus, UniProt A0A0H2XJ46)"
assigned_category = "n"


Confirm or reject: Replicate 2 of CC(=O)NC1C(O)CC(O)(C(=O)O)OC1C(O)C(C)O (stereo not drawn) [Compound 8f] lies strictly below 50 °C y

Hello, I'm reviewing records and need to know if Replicate 2 of CC(=O)N[C@H]1[C@H]([C@H](O)[C@H](O)CO)OC(C(=O)O)=C[C@@H]1O [Compound 9, reference compound] is below 50 °C. Could you check? y

Criterion: Replicate 2 strictly below 50 °C. Is it met by CCC(=O)NC1C(O)CC(O)(C(=O)O)OC1C(O)C(O)CO (stereo not drawn) [Compound 6a] ? y

I wonder whether CC(=O)NC1C(OCc2ccc(C#N)cc2)CC(O)(C(=O)O)OC1C(O)C(O)CO (stereo not drawn) [Compound 3d] has Replicate 2 below 50 °C. Can you tell? n

Dear colleague, could you confirm whether Replicate 2 of O=C(NC1C(O)CC(O)(C(=O)O)OC1C(O)C(O)CO)c1ccccc1 (stereo not drawn) [Compound 6d] falls below 50 °C? Thanks. y

Regarding CC(=O)NC1C(OCc2cc(F)cc(F)c2)CC(O)(C(=O)O)OC1C(O)C(O)CO (stereo not drawn) [Compound 3e] , kindly confirm whether its Replicate 2 is beneath 50 °C. n

Say whether its Replicate 2 is strictly beneath 50 °C. Entry: CC(C)C(=O)NC1C(O)CC(O)(C(=O)O)OC1C(O)C(O)CO (stereo not drawn) [Compound 6b] y

Dear reviewer, please state whether [N-]=[N+]=NCC(=O)N[C@H]1[C@H]([C@H](O)[C@H](O)CO)O[C@@](O)(C(=O)O)C[C@@H]1O [Compound 6h, reference compound] has Replicate 2 strictly beneath 50 °C. n

Quick check: Replicate 2 of CC(=O)NC1C(OCc2cc(Br)cc(Br)c2)CC(O)(C(=O)O)OC1C(O)C(O)CO (stereo not drawn) [Compound 3f] under 50 °C? n

Confirm or reject: Replicate 2 of CC(=O)NC1C(OCc2ccc(F)cc2)CC(O)(C(=O)O)OC1C(O)C(O)CO (stereo not drawn) [Compound 3b] lies strictly below 50 °C n

Determine if O=C(CO)N[C@H]1[C@H]([C@H](O)[C@H](O)CO)OC(O)(C(=O)O)C[C@@H]1O (stereo partly drawn) [Neu5Gc, 5-N-glycolyl neuraminic acid, reference compound] shows Replicate 2 strictly lower than 50 °C. n

Lab note: Replicate 2 threshold 50 °C. Does this compound come in strictly under it? CC(C)(C)C(=O)NC1C(O)CC(O)(C(=O)O)OC1C(O)C(O)CO (stereo not drawn) [Compound 6c] y

---

Tgt: PmSiaT (Proteus mirabilis)
Construct: made in house
Experimental protocol: nanoDSF thermal shift assay, PmSiaT
Format: binding
Cond: PmSiaT, experiment 2, first capillary, 1.25 mM
Measurement kind: Tm2 (°C)
I only need the number, in °C, no unit after it.

Answered examples (3):
[[record]]
molecule = "CC(C)(C)C(=O)NC1C(O)CC(O)(C(=O)O)OC1C(O)C(O)CO (centres unmarked)"
readout_value = 46.7

[[record]]
molecule = "CC(=O)NC1C(O)CC(O)(C(=O)O)OC1C(O)C(O)CI (centres unmarked)"
readout_value = 47.3

[[record]]
molecule = "CSCC(O)C(O)C1OC(O)(C(=O)O)CC(O)C1NC(C)=O (centres unmarked)"
readout_value = 46.3


Sure, the documented Tm2 for O=C(NC1C(O)CC(O)(C(=O)O)OC1C(O)C(O)CO)c1ccccc1 (centres unmarked) is 45.8

So, CC(=O)NC1C(OCc2cc(Br)cc(Br)c2)CC(O)(C(=O)O)OC1C(O)C(O)CO (centres unmarked) ? Its Tm2 was 62.6

For reference, reported Tm2 for CCC(=O)NC1C(O)CC(O)(C(=O)O)OC1C(O)C(O)CO (centres unmarked) stands at 46.8

// Tm2 lookup, molecule = [N-]=[N+]=NCC(=O)N[C@H]1[C@H]([C@H](O)[C@H](O)CO)O[C@@](O)(C(=O)O)C[C@@H]1O [Compound 6h, reference compound] , result: 49.2

// Tm2 lookup, molecule = CCSCC(O)C(O)C1OC(O)(C(=O)O)CC(O)C1NC(C)=O (centres unmarked) , result: 45.9
